Each entry below lists one item and its recorded pIC50 value.
molecular target: T1, soluble, biotinylated PD1 protein containing only the extracellular region (human, UniProt Q15116 25-170, biotinylated in vivo (site not stated)); assay: …; inhibition of GST-hPDL1 binding to biotinylated hPD1
T1 construct: extracellular domain; also called biotinylated hPD1
T1 sequence (Q15116 25-170): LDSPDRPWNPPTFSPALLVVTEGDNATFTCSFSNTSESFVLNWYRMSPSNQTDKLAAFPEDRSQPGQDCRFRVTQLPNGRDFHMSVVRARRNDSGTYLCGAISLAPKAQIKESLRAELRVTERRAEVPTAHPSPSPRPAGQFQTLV
pIC50: −log10 of the molar value.

Binder	pIC50
anti-hPD1 antibody #1 (antibody, V domains shown, also called Anti-hPD1 #1; Anti-PD1 #1) VH: QVQLVQSGAEVKKPGASVKVSCKASGYTFTNYWIHWVRQAPGQGLEWMGEIDPYDSYTNYNQKFKGRVTMTVDKSTSTVYMELSSLRSEDTAVYYCARPGFTYGGMDFWGQGTLVTVSS VL: DIQMTQSPSSLSASVGDRVTITCKSSQSLFNSGNQKNYLAWYQQKPGKVPKLLIYGASTRDSGVPYRFSGSGSGTDFTLTISSLQPEDVATYYCQNDHYYPYTFGGGTKVEIKR	9.71
anti-hPD1 antibody #3 (antibody, human IgG4, V domains shown, also called Anti-hPD1 #3; Anti-PD1 #3) VH: QVQLVQSGAEVKKPGASVKVSCKASSYTFTNYWMHWVRQAPGQGLEWMGEIDPYDSYTNYNQKFKGRVTMTIDTSTSTVYMELSSLTSEDTAVYYCARPGFTYGGMDFWGQGTLVTVSS VL: DIQMTQSPSSLSASVGDRVTITCKSSQSLFNSGNQKNYLAWYQQKPGKVPKLLIYGASTRESGVPARFSGSGSGTDFTLTISSLQAEDVATYYCQNDHYYPYTFGGGTKVEIK	9.51
anti-hPD1 antibody #7 (antibody, human IgG4, V domains shown, also called Anti-hPD1 #7; Anti-PD1 #7) VH: QVQLVQSGAEVKKPGASVKVSCKASGYTFTNYWIHWVRQAPGQGLEWMGEIDPYDSYTNYNQKFKGRVTMTIDKSTNTVYMELSSLRSEDTAVYYCARPGLTYGGMDFWGQGTLVTVSS VL: DIVMTQSPDSLAVSLGERATINCRSSQSLFISGNQKNYLAWYQQKPGQPPKLLIYGASTRESGVPDRFSGSGSGTDFTLTISSLQAEDVAVYYCQNNHYYPYTFGGGTKVEIK	9.51

Recorded values, source patent US20190276542A1.
